Kindly state apparent KD of K4 kissing-loop reporter for each of the entries shown.
test system: K4 kissing-loop RNA reporter; test: apparent KD of K4 kissing-loop reporter; higher = weaker reporter binding; conditions: Eterna round: R107; input ligand: none;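 note: bound reporter read as fluorescence of individual clusters on recovered sequencing chips by microscopy, with normalized cluster intensities fitted with a binding model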

According to the records, this sequence AUUUGUUUAUGUGAUACCAGACUUUGCAGUGAUGUUGCAUUUAUUUUAGAAUUUUAUUUAGUCCCUUGGCAGCACUAUGUAUUUA [JR_SSTheophyB_Sub007] displays apparent KD of K4 kissing-loop reporter of 53.1 nM

Quick note, apparent KD of K4 kissing-loop reporter for GGAGUUACCUGGGAUACCAGCCGGAGGCCCAGAGCUCGGAGUGAUGUUCUGGGAUGUUUCGGCCCUUGGCAGCUCUGGGUCUCCG [#2 Exclusion - Theophylline B Attempt #5 (HarryS)] landed at 806 nM

For reference, reported apparent KD of K4 kissing-loop reporter for UGAUAGGACAGAAGGAGCGAGGAGUGAUGUUCCUCAAAAGGUCUAGCAAAGCUAGACCCUCCUCAGGUAGGUCGCUGUCCUAUCU [ArgBX 1 #Palindromic #SwitchBubble #StaticStem] stands at 167 nM

Input CGCGUGGGUUUGAGAGGGUUUGCGCGAAGUGAGGAUAUUUAGGGAGAAAGAAGGCACUAUAAAAUAUAGUGAUGUUAUAUAAGGG [SSFMNA.J] . Output apparent KD of K4 kissing-loop reporter: 170 nM

Summary for this sequence, AAGGAAUGUAUAGAUUAUAUACAUUCAACAGAGGAUAUGCAUUAUUGCAGAAGGCUGAAUGCAGUGAUGUUGCAAUAAUUAUUUA [#09 K4 FMN A Same State] : apparent KD of K4 kissing-loop reporter is 181 nM

// field: apparent KD of K4 kissing-loop reporter; key: UAUCGAGUGAUGUUCGAUGUAGUUCAUUCAGAGGAUAUAGGAUGGGCUAGAAGGCUGAAAAGUGCUUCGAGUGAUGUUCGAAGAU [Exclusion FMN A GF 6] ; value = 53.7 nM

----------
test system: MS2 coat protein; assay: apparent KD of MS2 coat protein; designed switch direction (-1 OFF switch, 1 ON switch): 1; higher = weaker reporter binding; conditions: input ligand: FMN 200 uM
measure: apparent KD of MS2 coat protein
Number first, unit second: that is the form wanted.

apparent KD of MS2 coat protein recorded for this sequence, AUCCGGAAGCGAGGAUAUGCAGAGGAUCACCCUGCAGAAGGCGCGAUCGCGAGGAUAUGCAGAGGAUCACCCUGCAGAAGGCGC [pwkr ssNG DX.31] (Eterna round: R96, puzzle: Same State NG 1) , is 15.5 nM

For reference, reported apparent KD of MS2 coat protein for GACCGCGAGGAAGGAUAUGGAGCCUAAUAGGCUCCAGAAGGUCCAUAAAGGACAUGAGGAUCACCCAUGUGGGCUGAAGCGGUC [Mat - Same State NG 1 - JL mod - D74] (Eterna round: R96, puzzle: Same State NG 1) stands at 18.3 nM

For reference, reported apparent KD of MS2 coat protein for CCCUGAGGUAGCCCACAGGGACAUGAGGAUCACCCAUGUACACAGGAUAUCGAGGGCUCCGCCUUCGAGAAGGGUGAUCAAACU [Geditedi] (Eterna round: R96, puzzle: Same State NG 3) stands at 148 nM

Short answer for UGGCUCAGACGAGGAUAUAUGUGAUCACAUGAGGAUCACCCAUGUCUCGAGCUUCGGCUCGAGACAUAGAAGGUGUCUGAGCCU [SSNG2/3-C3] (Eterna round: R96, puzzle: Same State NG 2) : apparent KD of MS2 coat protein was 53.9 nM

Just so you know, measured apparent KD of MS2 coat protein for AGGCUCAGACGAGGAUAUGGUCAUGGCGCUUCGGCGCAUACAUGAGGAUCACCCAUGUAGGGUGAUCAGAAGGUGUCUGAGCCA [SSNG2/9-B1] (Eterna round: R96, puzzle: Same State NG 2) came out at 171 nM

Summary for this sequence, GGGAGAGCCGCAGGAUAUGGUGAGGAUUACCCACUAGAAGGGUGGACAUGAGAAUCGAACAUGAGGAUCACCCAUGUUCUGAGG (Eterna round: R96, puzzle: Same State NG 1) : apparent KD of MS2 coat protein is 200 nM

So for GCUACCAAAGAAGCCAACAUGAGGAUCACCCAUGUAUGUUGGUAGGAUAUCGUUUGCAAAGCGAACGAGAAGGGCUAAGGUAGC [Mat - Same State NG 3 - JL Mod - D85] (Eterna round: R96, puzzle: Same State NG 3) , the logged apparent KD of MS2 coat protein turned out to be 151 nM

Quick note, apparent KD of MS2 coat protein for UUAAUAAUGAUAGGAUAUACAUGAGGAAUUCUCGUAGAAGGAUCAUGACAUGAGGAUCACCCAUGUAUCGCUCGAUAGAGCGUA [Mat - Same State NG 1 - JL mod - D35] (Eterna round: R96, puzzle: Same State NG 1) landed at 447 nM

Lab note: CUUUUUAAUGCAGGAUAUGAUCAACAUGAGGAUCACCCAUGUGGUGUUGUGAGUAAGGAGAGUGAUCAGAAGGGCAUCUUUUCA [SS-NG2-LRO04] (Eterna round: R96, puzzle: Same State NG 2) gave apparent KD of MS2 coat protein of 737 nM

----------
test system: MS2 coat protein; assay: apparent KD of MS2 coat protein; designed switch direction (-1 OFF switch, 1 ON switch): -1; higher = weaker reporter binding; conditions: Eterna round: R95; input ligand: FMN 200 uM
measure: apparent KD of MS2 coat protein (nM)
Respond with the bare value in nM.

Tested system MS2 coat protein; apparent KD of MS2 coat protein recorded for AGUCGGCGAGGAUAUACAUGAGGAUCACCCAUGUGGAAUCCUAGACCUGUAGGUCCAUGUAGAAGGCGCUGACA [Exclusion 3 - Was a mod at one point v.2] (puzzle: Exclusion 3) was 32.2

MS2 coat protein data for AGUUGGCGAGGAUAUACAUGAGGAUCACCCAUGUGAGAGAUACUAGUGAGGUCGAUUAGUAGAAGGCGCUGACG [Mat - Exclusion 3 - Mod of JL D76] (puzzle: Exclusion 3) ; its apparent KD of MS2 coat protein: 1170

// sequence AUGUGGGUAAGAAGGUGAAGAUAGAGCGUACGUUAUGGAACAUGAGGAUCACCCAUGUAGCUUUUUGCUCGUCUUAU [JR_SV3TOV2_Sub033] (puzzle: Sensor v3, turn-off variant 2) , assay MS2 coat protein, apparent KD of MS2 coat protein value: 17.6

Result for AUAGCUCGUGUUAGGAUAUCCGCAUAUUUUACAUAGGAGAAGGAACAUGAGGAUCACCCAUGUAAUAGAAAAGA [Maenri] (puzzle: Brourd's mod of Exclusion 4) , tested on MS2 coat protein, apparent KD of MS2 coat protein: 138

# lookup: GAUUAUGCGAGCUUUAGGGACAUGAGGAUCACCCAUGUUCGUCUUAUUAGUCUGGGUACGCUAACAUACCUAAAUCU [JMF 43] (puzzle: Sensor v3, turn-off variant 1) on MS2 coat protein, apparent KD of MS2 coat protein = 30.1

apparent KD of MS2 coat protein on MS2 coat protein for AAGAAACAUGAGGAUCACCCAUGUGAGGAUAUGAUCAAGAAAAGAAAAGAAAGAAGAAUCAGAAGGCACAAAGG [salish99-ex1_r3_044] (puzzle: Exclusion 1) is 295

Here GAAAAGGUAGGAUAUACGAAAAAAAAGGGUAGAAAAAAAAUACAUGAGGAUCACCCAUGUAGAAGGACCAAAAG [salish99_ex2_r3_060] (puzzle: Exclusion 2) was tested on MS2 coat protein, and its apparent KD of MS2 coat protein came to 24.4

Reading of apparent KD of MS2 coat protein for GGUACUAACACGAUAGUGUUAGUACAAUAAGCUUGUGUUACAUGAGGAUCACCCAUGUCCUCAUAAGCUCGUCUUAU [Mat - Sensor v3 - Turn-off var 2 - D56] (puzzle: Sensor v3, turn-off variant 2) with MS2 coat protein: 117

The recorded apparent KD of MS2 coat protein with MS2 coat protein for AAGAAACAUGAGGAUCACCCAUGUGAGGAUAUGAUAAAGAAAAGAAAAGAAAGAAGAAUCAGAAGGCACAAAGG [salish99-ex1_r3_031] (puzzle: Exclusion 1) was 129

// apparent KD of MS2 coat protein (MS2 coat protein) for GAUUAUGCAAGCUUUCGGGACAUGAGGAUCACCCAUGUUCGUCUUAUUGAUCUAGGUACGCUGACGUACCUAGAUCU [JL-sv1-2.33 Brourd mod] (puzzle: Sensor v3, turn-off variant 1) = 17

----------
tested on: MS2 coat protein; experiment: apparent KD of MS2 coat protein; higher = weaker reporter binding; conditions: Eterna round: R107; input ligand: arginine 13.2 mM
So I've got a bunch of sequences here, and I need their apparent KD of MS2 coat protein values.
Enter your answer as a number in nM; do not include the unit.

The sequence identified as UUAGAUUGCCGAAGGAGCGAGAUAGCCUACAUGAGGAUCACCCAUGUAGAAACGGGCUGAUCUCAGGUAGGUCGCGGCAGGUAGC [Soaquatan] registered its apparent KD of MS2 coat protein at 84.6

Recorded apparent KD of MS2 coat protein (sequence UUUAUUUAUUUAUUUAUUUAUUUAACAGAAGGAGCGUGGAUUAACACAGGUAGGUCGCUGACAUGAGGAUCACCCAUGUAUUAUU [SSAA #1] ): 106

Sample CGCAACCCACAUGAGGAUCACCCAUGUGAAGGAGCGGCGAAUAAGCCAGGUAGGUCGCGCAUGAAUAAAUCAUGUAGGAAGCUAA [XArg-A 8 V1] ; apparent KD of MS2 coat protein observed: 9.8

Short answer for GUGUUAUGCUCGGCCGCCACUCUGACAUGAGGAUCACCCAUGUUGUACAUGAGGAUCACCCAUGUGAGGACCGGGAGAAACACGA [Exclusion Tryptophan B GF9] : apparent KD of MS2 coat protein was 191

apparent KD of MS2 coat protein in this record for AAACAACAUGAGGAUCACCCAUGUACCGAUACCAGCCAAAUAUAAGGCCCUUGGCAGCGGAGUAAAUCCGGAGGACAAUGGGUAA [Same State Theophylline A GF5] : 8.62

Short answer for ACAUGAGGAUCACCCAUGUGUGUAAAUCCUCGAGGACCGGUACGGCCGCCACUCGAUUGAGUGUAAGUUGAAUGUAACAUUCAAC [whbob_SS_trypto A_2s9] : apparent KD of MS2 coat protein was 46
